binders and their reported pKd
# measurement target: T1, PDZRN3_1, Q9UPQ7
# T1 sequence (Q9UPQ7 244-349, limits assumed, looked up): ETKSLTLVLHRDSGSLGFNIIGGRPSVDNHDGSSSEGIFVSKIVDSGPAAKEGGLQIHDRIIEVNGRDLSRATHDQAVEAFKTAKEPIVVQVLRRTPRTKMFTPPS
# method: holdup assay
# Set-up: key: below the threshold = too weak to quantify, mostly under pKd 3.1 to 4
# condition details: plain residues with an end cap or a label only (N-terminal biotin on a linker: ado-ado)
readout kind: pKd

| binder | observed |
| --- | --- |
| NTANRRTTPV [CACNG2, Q9Y698] | 4.23 |
| DTKNYKQTSV [CRIPT, Q9P021] | 4.12 |

Where do the numbers come from? From paper PMC9482650.
